molecular target: Sphingosine 1-phosphate receptor 1 (Homo sapiens, UniProt P21453); experiment: Agonist activity at human S1P1 receptor by beta-arrestin recruitment assay relative to S1P
Sequence (P21453 whole entry): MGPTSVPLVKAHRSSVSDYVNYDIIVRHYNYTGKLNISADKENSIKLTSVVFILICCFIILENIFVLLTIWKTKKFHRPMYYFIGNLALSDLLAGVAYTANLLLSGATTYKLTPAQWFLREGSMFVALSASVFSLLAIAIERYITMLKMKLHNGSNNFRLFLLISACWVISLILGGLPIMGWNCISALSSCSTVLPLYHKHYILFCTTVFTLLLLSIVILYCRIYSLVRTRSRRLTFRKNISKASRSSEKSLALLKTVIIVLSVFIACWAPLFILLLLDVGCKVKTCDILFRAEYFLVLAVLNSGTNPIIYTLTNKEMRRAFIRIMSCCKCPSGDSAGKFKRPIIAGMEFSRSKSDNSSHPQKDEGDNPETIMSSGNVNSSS
Below is a list of entries, each paired with its recorded Emax value.
Give the value in % but do not write % after it.

Use the examples below as a reference point.
- Molecule: "CC(C)Oc1ccc(COc2ccc3c(c2)c(Cl)c2n3CC[C@@H]2CC(=O)O)cc1C#N"
  Value Reported: 112
- Molecule: "CC(C)Oc1ccc(COc2ccc3c(c2)cc2n3CCC2CC(=O)O)cc1C(F)(F)F (single isomer, unassigned; enantiomer 2)"
  Value Reported: 104
- Molecule: "CC(C)Oc1ccc(COc2ccc3c(c2)c(Cl)c2n3CC[C@@H]2CC(=O)O)cc1C(F)(F)F"
  Value Reported: 112
- Molecule: "CC(C)Oc1ccc(COc2ccc3c(c2)cc2n3CCC2CC(=O)O)cc1C#N (stereo in doubt; 19b)"
  Value Reported: 122
- Molecule: "CC(C)Oc1ccc(COc2ccc3c(c2)cc2n3CCC2CC(=O)O)cc1C(F)(F)F (single isomer, unassigned; enantiomer 1)"
  Value Reported: 108

stdin: What does the data say about its Emax? Entry: O=C(O)CC1CCn2c1cc1cc(OCc3ccc(C4CCCC4)c(C(F)(F)F)c3)ccc12 (stereo in doubt; 12b)
stdout: 100

stdin: Same for CC(C)Oc1ccc(COc2ccc3c(c2)cc2n3CCC2CC(=O)O)cc1C#N (stereo in doubt; 19a)
stdout: 128

stdin: Same for O=C(O)CC1CCn2c1cc1cc(OCc3ccc(C4CCCC4)c(C(F)(F)F)c3)ccc12 (stereo in doubt; 12a)
stdout: 105

* * *

target: Sphingosine 1-phosphate receptor 1 (Mus musculus); assay: Agonist activity at mouse S1P1 receptor assessed as cAMP accumulation by HTRF assay
Sequence (O08530 whole entry): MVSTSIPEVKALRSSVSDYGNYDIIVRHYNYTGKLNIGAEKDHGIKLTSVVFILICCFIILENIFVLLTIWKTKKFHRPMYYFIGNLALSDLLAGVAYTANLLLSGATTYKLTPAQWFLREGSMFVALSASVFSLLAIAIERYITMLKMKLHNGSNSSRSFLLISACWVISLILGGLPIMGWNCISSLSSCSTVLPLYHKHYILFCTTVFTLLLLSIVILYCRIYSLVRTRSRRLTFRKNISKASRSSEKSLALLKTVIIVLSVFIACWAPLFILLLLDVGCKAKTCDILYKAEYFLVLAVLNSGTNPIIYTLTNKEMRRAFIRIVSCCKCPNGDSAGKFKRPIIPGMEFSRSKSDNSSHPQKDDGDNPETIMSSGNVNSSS
Result Type: pEC50
Lab note — pEC50 values are minus log10 of concentrations in M.

- Item Smiles: "CC(C)Oc1ccc(COc2ccc3c(c2)c(Cl)c2n3CC[C@@H]2CC(=O)O)cc1C#N"
  Value Reported: 10.30

Below: the item to evaluate.
stdin: What does the data say about its pEC50? Entry: `CC(C)Oc1ccc(COc2ccc3c(c2)c(Cl)c2n3CC[C@@H]2CC(=O)O)cc1C(F)(F)F`
stdout: 10.19

* * *

target: Sphingosine 1-phosphate receptor 5 (Homo sapiens); test: Agonist activity at human S1P5 receptor by beta-arrestin recruitment assay
Sequence (Q9H228 whole entry): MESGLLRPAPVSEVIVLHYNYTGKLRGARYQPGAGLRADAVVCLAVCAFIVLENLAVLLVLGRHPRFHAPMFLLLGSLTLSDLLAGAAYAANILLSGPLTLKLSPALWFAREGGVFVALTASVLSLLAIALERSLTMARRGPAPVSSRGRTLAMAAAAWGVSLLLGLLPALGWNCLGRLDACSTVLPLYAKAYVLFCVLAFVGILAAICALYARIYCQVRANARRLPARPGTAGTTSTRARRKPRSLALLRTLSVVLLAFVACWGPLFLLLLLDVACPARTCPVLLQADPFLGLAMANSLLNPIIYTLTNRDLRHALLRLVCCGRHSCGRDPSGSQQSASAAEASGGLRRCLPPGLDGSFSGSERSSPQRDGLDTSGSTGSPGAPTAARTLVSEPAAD
pEC50: −log10 of the molar value.
Please mark MET if the recorded pEC50 is equal to or greater than 7, and NOT MET if it falls below.

Record excerpt, results attached:
- Compound: "CC(C)Oc1ccc(COc2ccc3c(c2)cc2n3CCC2CC(=O)O)cc1C#N (stereo in doubt; 19a)"
  Category: "NOT MET"
- Compound: "CC(C)Oc1ccc(COc2ccc3c(c2)c(Cl)c2n3CC[C@@H]2CC(=O)O)cc1C(F)(F)F"
  Category: "MET"
- Compound: "CC(C)Oc1ccc(COc2ccc3c(c2)c(Cl)c2n3CC[C@@H]2CC(=O)O)cc1C#N"
  Category: "MET"

stdin: Does the reported pEC50 for CC(C)Oc1ccc(COc2ccc3c(c2)cc2n3CCC2CC(=O)O)cc1C(F)(F)F (single isomer, unassigned; enantiomer 1) fall at or above the 7 mark?
stdout: NOT MET

stdin: Same for CC(C)Oc1ccc(COc2ccc3c(c2)cc2n3CCC2CC(=O)O)cc1C#N (stereo in doubt; 19b)
stdout: NOT MET

stdin: Same for CC(C)Oc1ccc(COc2ccc3c(c2)cc2n3CCC2CC(=O)O)cc1C(F)(F)F (single isomer, unassigned; enantiomer 2)
stdout: NOT MET

* * *

assay: Drug level in rat plasma at 1 mg/kg, po dosed for 6 consecutive days; type: ADME, organism-based; design: dose 1 mg/kg, route oral
Result Type: concentration at 6 days
I'd appreciate it if you included the unit after the number.

stdin: What does the data say about its concentration at 6 days? Entry: `CC(C)Oc1ccc(COc2ccc3c(c2)c(Cl)c2n3CC[C@@H]2CC(=O)O)cc1C(F)(F)F`
stdout: 352 ng/mL

* * *

target: P2Y purinoceptor (Rattus norvegicus); test: Binding affinity to P2Y purinoceptor (rat) by [35S]dATPalphaS competitive binding assay; conditions: read-out: IC50
Result Type: pIC50
Lab note — pIC50 values are minus log10 of concentrations in M.

stdin: What does the data say about its pIC50? Entry: `CC(C)Oc1ccc(COc2ccc3c(c2)c(Cl)c2n3CC[C@@H]2CC(=O)O)cc1C#N`
stdout: 6.41

* * *

assay: Cmax in Sprague-Dawley rat at 1 mg/kg, po; format: ADME, organism-based; set-up: dose 1 mg/kg, route oral; settings: in vivo
Below is a list of entries, each paired with its recorded Cmax value.
Give the value in ng/mL but do not write ng/mL after it.

stdin: What does the data say about its Cmax? Entry: CC(C)Oc1ccc(COc2ccc3c(c2)cc2n3CCC2CC(=O)O)cc1C#N (stereo in doubt; 19a)
stdout: 569

stdin: Same for `CC(C)Oc1ccc(COc2ccc3c(c2)c(Cl)c2n3CC[C@@H]2CC(=O)O)cc1C(F)(F)F`
stdout: 584

stdin: Same for O=C(O)CC1CCn2c1cc1cc(OCc3ccc(C4CCCC4)c(C(F)(F)F)c3)ccc12 (stereo in doubt; 12a)
stdout: 526

stdin: Same for `CC(C)Oc1ccc(COc2ccc3c(c2)c(Cl)c2n3CC[C@@H]2CC(=O)O)cc1C#N`
stdout: 618

* * *

Target: Sphingosine 1-phosphate receptor 4 (Homo sapiens)
Sequence (whole entry): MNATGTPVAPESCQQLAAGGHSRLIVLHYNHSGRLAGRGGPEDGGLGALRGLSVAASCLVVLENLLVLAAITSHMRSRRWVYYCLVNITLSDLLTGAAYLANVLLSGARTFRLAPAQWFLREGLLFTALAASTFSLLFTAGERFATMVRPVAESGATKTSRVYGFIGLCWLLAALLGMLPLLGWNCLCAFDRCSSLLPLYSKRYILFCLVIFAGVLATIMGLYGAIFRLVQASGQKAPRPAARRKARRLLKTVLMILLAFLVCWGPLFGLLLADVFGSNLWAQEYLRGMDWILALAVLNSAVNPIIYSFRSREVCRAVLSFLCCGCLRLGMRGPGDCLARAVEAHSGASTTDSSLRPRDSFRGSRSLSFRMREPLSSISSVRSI
Test: Agonist activity at human S1P4 receptor by beta-arrestin recruitment assay relative to S1P
Result Type: Emax
I'd appreciate it if you included the unit after the number.

- Compound: "CC(C)Oc1ccc(COc2ccc3c(c2)c(Cl)c2n3CC[C@@H]2CC(=O)O)cc1C#N"
  Emax: "85%"
- Compound: "CC(C)Oc1ccc(COc2ccc3c(c2)c(Cl)c2n3CC[C@@H]2CC(=O)O)cc1C(F)(F)F"
  Emax: "29%"
- Compound: "O=C(O)CC1CCn2c1cc1cc(OCc3ccc(C4CCCC4)c(C(F)(F)F)c3)ccc12 (stereo in doubt; 12a)"
  Emax: "47%"

Below: the item to evaluate.
stdin: What does the data say about its Emax? Entry: O=C(O)CC1CCn2c1cc1cc(OCc3ccc(C4CCCC4)c(C(F)(F)F)c3)ccc12 (stereo in doubt; 12b)
stdout: 49%

* * *

Below is a list of entries, each paired with its recorded clearance value.
test: Systemic clearance in Sprague-Dawley rat at 1 mg/kg, iv; format: ADME, organism-based; parameters: dose 1 mg/kg, route intravenous; details: in vivo
I'd appreciate it if you included the unit after the number.

- Compound: "CC(C)Oc1ccc(COc2ccc3c(c2)c(Cl)c2n3CC[C@@H]2CC(=O)O)cc1C(F)(F)F"
  clearance: "1.54 mL/min/kg"

stdin: What does the data say about its clearance? Entry: O=C(O)CC1CCn2c1cc1cc(OCc3ccc(C4CCCC4)c(C(F)(F)F)c3)ccc12 (stereo in doubt; 12a)
stdout: 1.2 mL/min/kg

stdin: Same for CC(C)Oc1ccc(COc2ccc3c(c2)cc2n3CCC2CC(=O)O)cc1C#N (stereo in doubt; 19a)
stdout: 2.18 mL/min/kg

stdin: Same for `CC(C)Oc1ccc(COc2ccc3c(c2)c(Cl)c2n3CC[C@@H]2CC(=O)O)cc1C#N`
stdout: 3.2 mL/min/kg

* * *

assay: Oral bioavailability in Sprague-Dawley rat at 1 mg/kg; format: ADME, organism-based; conditions: in vivo
Result Type: bioavailability (%)
Give the value in % but do not write % after it.

Use the examples below as a reference point.
- Molecule: "CC(C)Oc1ccc(COc2ccc3c(c2)c(Cl)c2n3CC[C@@H]2CC(=O)O)cc1C#N"
  Result Type: "bioavailability"
  Value Reported: 76.4
- Molecule: "O=C(O)CC1CCn2c1cc1cc(OCc3ccc(C4CCCC4)c(C(F)(F)F)c3)ccc12 (stereo in doubt; 12a)"
  Result Type: "bioavailability"
  Value Reported: 39
- Molecule: "CC(C)Oc1ccc(COc2ccc3c(c2)c(Cl)c2n3CC[C@@H]2CC(=O)O)cc1C(F)(F)F"
  Result Type: "bioavailability"
  Value Reported: 56.6

Below: the item to evaluate.
stdin: What does the data say about its bioavailability? Entry: CC(C)Oc1ccc(COc2ccc3c(c2)cc2n3CCC2CC(=O)O)cc1C#N (stereo in doubt; 19a)
stdout: 49.8
